The reader will find reported IC50 values listed item by item below.
biological target: human P2X7 receptor (Homo sapiens, UniProt Q99572, R270H/Y155H); test: Evaluation of human P2X7 receptor inhibitory activity (Yo-Pro uptake, BzATP stimulation, FLIPR TETRA); type: cell-based; details: antagonistic activity for the human P2X7 receptor; read-out: IC50
assay.endpoint: IC50

>  <molecule>
COc1cn(Cc2ccc(F)c(F)c2)c(Nc2cc(N3CCOCC3)ccc2C)nc1=O [Compound I-0736]

>  <assay.endpoint>
IC50

>  <recorded.measurement>
10 to 100 nM

$$$$
>  <molecule>
COc1cn(Cc2cc(F)c(F)c(F)c2)c(Nc2cc(N3CCOCC3)ccc2C)nc1=O [Compound I-0931]

>  <assay.endpoint>
IC50

>  <recorded.measurement>
10 to 100 nM

$$$$
>  <molecule>
COc1cn(Cc2ccccc2)c(Nc2cc(C)c(OC(F)F)cc2C)cc1=O [Compound I-0951]

>  <assay.endpoint>
IC50

>  <recorded.measurement>
100 to 500 nM

$$$$
>  <molecule>
COc1cn(Cc2ccc(F)c(F)c2)c(Nc2cc(-c3cccnc3)ccc2C)nc1=O [Compound I-0764]

>  <assay.endpoint>
IC50

>  <recorded.measurement>
< 10 nM

$$$$
>  <molecule>
Cc1ccc(CF)cc1Nc1nc(=O)c(F)cn1Cc1cc(F)cc(F)c1 [Compound I-1240]

>  <assay.endpoint>
IC50

>  <recorded.measurement>
< 10 nM

$$$$
>  <molecule>
COCc1cn(Cc2cc(F)c(F)c(F)c2)c(Nc2cc3sc(C)nc3cc2C)nc1=O [Compound I-1141]

>  <assay.endpoint>
IC50

>  <recorded.measurement>
10 to 100 nM

$$$$
>  <molecule>
CCOc1cc(Nc2nc(=O)c(OC)cn2Cc2ccccc2)c(C)cc1C [Compound I-0790]

>  <assay.endpoint>
IC50

>  <recorded.measurement>
< 10 nM

$$$$
>  <molecule>
CCOc1cn(Cc2ccc(F)c(Cl)c2)c(Nc2cc(C)cc(OC)c2C)nc1=O [Compound I-0716]

>  <assay.endpoint>
IC50

>  <recorded.measurement>
< 10 nM

$$$$

----------
# reported IC50; entries follow
biological target: human P2X7 receptor (Homo sapiens, UniProt Q99572, R270H/Y155H); assay: Evaluation of human P2X7 receptor inhibitory activity (Yo-Pro uptake, BzATP stimulation, FLIPR TETRA); assay type: cell-based; settings: 1321N1 cells stably expressing human P2X7 receptor; BzATP stimulation, Yo-Pro uptake; read-out: IC50 (antagonistic activity for the human P2X7 receptor), class symbol

>  <compound>
COc1ccc(Nc2nc(=O)c(OC)cn2Cc2ccccc2)c(C)c1 [Compound I-0147]

>  <IC50>
10 to 100 nM

$$$$
>  <compound>
COc1cn(Cc2cc(F)cc(Cl)c2)c(Nc2cc(C)c(F)cc2C)nc1=O [Compound I-0508]

>  <IC50>
10 to 100 nM

$$$$
>  <compound>
CCc1ccccc1Nc1nc(=O)c(Cl)cn1Cc1ccccc1 [Compound I-0105]

>  <IC50>
100 to 500 nM

$$$$
>  <compound>
COc1cn(Cc2ccccc2)c(Nc2cccc3c2ccn3C)nc1=O [Compound I-0117]

>  <IC50>
10 to 100 nM

$$$$
>  <compound>
CCc1ccccc1Nc1nc(=O)c(F)cn1Cc1cccc(Cl)c1 [Compound I-0223]

>  <IC50>
10 to 100 nM

$$$$

----------
# Lookup of reported pIC50 keyed by entry
biological target: human P2X7 receptor (Homo sapiens, UniProt Q99572, R270H/Y155H); assay: Evaluation of human P2X7 receptor inhibitory activity (Yo-Pro uptake, BzATP stimulation, FLIPR TETRA); format: cell-based; conditions: antagonistic activity for the human P2X7 receptor; read-out: IC50
pIC50: −log10 of the molar value.

>  <compound>
COc1cn(Cc2ccccc2)c(Nc2ccc(N(C)C)cc2C)nc1=O [Compound I-0622]

>  <test.system>
human P2X7 receptor (Homo sapiens, UniProt Q99572, R270H/Y155H)

>  <pIC50>
7.00 to 8.00

$$$$
>  <compound>
CCOc1cc(Nc2nc(=O)c(OC)cn2Cc2cc(F)cc(Cl)c2)c(C)cc1C [Compound I-0789]

>  <test.system>
human P2X7 receptor (Homo sapiens, UniProt Q99572, R270H/Y155H)

>  <pIC50>
> 8.00

$$$$
>  <compound>
Cc1ccc(-c2ncco2)cc1Nc1nc(=O)c(Cl)cn1Cc1ccc(F)c(F)c1 [Compound I-0853]

>  <test.system>
human P2X7 receptor (Homo sapiens, UniProt Q99572, R270H/Y155H)

>  <pIC50>
> 8.00

$$$$
>  <compound>
COc1cn(Cc2ccccc2)c(Nc2cc(-c3cccn(C)c3=O)ccc2C)nc1=O [Compound I-0587]

>  <test.system>
human P2X7 receptor (Homo sapiens, UniProt Q99572, R270H/Y155H)

>  <pIC50>
7.00 to 8.00

$$$$
>  <compound>
Cc1cc(OC(F)F)c(C)cc1Nc1nc(=O)c(F)cn1Cc1cc(F)c(F)c(F)c1 [Compound I-1210]

>  <test.system>
human P2X7 receptor (Homo sapiens, UniProt Q99572, R270H/Y155H)

>  <pIC50>
> 8.00

$$$$
>  <compound>
COc1ccc(Nc2nc(=O)c(CCO)cn2Cc2cc(F)c(F)c(F)c2)c(C)c1 [Compound I-1104]

>  <test.system>
human P2X7 receptor (Homo sapiens, UniProt Q99572, R270H/Y155H)

>  <pIC50>
7.00 to 8.00

$$$$
>  <compound>
COc1cn(Cc2ccc(F)c(Cl)c2)c(Nc2cc(-c3ccccc3)ccc2C)nc1=O [Compound I-0828]

>  <test.system>
human P2X7 receptor (Homo sapiens, UniProt Q99572, R270H/Y155H)

>  <pIC50>
7.00 to 8.00

$$$$
>  <compound>
COc1cn(Cc2cc(F)c(F)c(F)c2)c(Nc2cc3sc(C)nc3cc2C)nc1=O [Compound I-0697]

>  <test.system>
human P2X7 receptor (Homo sapiens, UniProt Q99572, R270H/Y155H)

>  <pIC50>
> 8.00

$$$$
>  <compound>
COc1cn(Cc2cc(F)cc(F)c2)c(Nc2cc3c(cc2C)OCCO3)nc1=O [Compound I-0709]

>  <test.system>
human P2X7 receptor (Homo sapiens, UniProt Q99572, R270H/Y155H)

>  <pIC50>
> 8.00

$$$$
>  <compound>
Cc1ccc(OCCO)cc1Nc1nc(=O)c(F)cn1Cc1cc(F)c(F)c(F)c1 [Compound I-1205]

>  <test.system>
human P2X7 receptor (Homo sapiens, UniProt Q99572, R270H/Y155H)

>  <pIC50>
> 8.00

$$$$
>  <compound>
CCOc1cc(Nc2nc(=O)c(F)cn2Cc2ccc(F)c(F)c2)c(C)cc1F [Compound I-1033]

>  <test.system>
human P2X7 receptor (Homo sapiens, UniProt Q99572, R270H/Y155H)

>  <pIC50>
> 8.00

$$$$
>  <compound>
COCc1cn(Cc2cc(F)c(F)c(F)c2)c(Nc2cc(OC)ccc2C)nc1=O [Compound I-1138]

>  <test.system>
human P2X7 receptor (Homo sapiens, UniProt Q99572, R270H/Y155H)

>  <pIC50>
7.00 to 8.00

$$$$
>  <compound>
COc1cc(C)c(Nc2nc(=O)c(OC)cn2Cc2ccc(F)c(Cl)c2)cc1F [Compound I-0719]

>  <test.system>
human P2X7 receptor (Homo sapiens, UniProt Q99572, R270H/Y155H)

>  <pIC50>
> 8.00

$$$$
>  <compound>
Cc1cc(C)c(OC(F)F)cc1Nc1nc(=O)c(F)cn1Cc1cc(F)c(F)c(F)c1 [Compound I-1230]

>  <test.system>
human P2X7 receptor (Homo sapiens, UniProt Q99572, R270H/Y155H)

>  <pIC50>
> 8.00

$$$$
>  <compound>
Cn1ccc2c(Nc3nc(=O)c(F)cn3Cc3cc(F)c(F)c(F)c3)cccc21 [Compound I-1018]

>  <test.system>
human P2X7 receptor (Homo sapiens, UniProt Q99572, R270H/Y155H)

>  <pIC50>
> 8.00

$$$$
>  <compound>
Cc1c(Nc2nc(=O)c(F)cn2Cc2cc(F)cc(F)c2)ccc2[nH]ccc12 [Compound I-1119]

>  <test.system>
human P2X7 receptor (Homo sapiens, UniProt Q99572, R270H/Y155H)

>  <pIC50>
> 8.00

$$$$
>  <compound>
CCOc1cc(Nc2nc(=O)c(OC)cn2Cc2ccc(F)c(F)c2)c(C)cc1C [Compound I-0793]

>  <test.system>
human P2X7 receptor (Homo sapiens, UniProt Q99572, R270H/Y155H)

>  <pIC50>
> 8.00

$$$$
>  <compound>
COc1ccc(Nc2nc(=O)cnn2Cc2ccc(F)c(F)c2)c(C)c1 [Compound I-1272]

>  <test.system>
human P2X7 receptor (Homo sapiens, UniProt Q99572, R270H/Y155H)

>  <pIC50>
> 8.00

$$$$
>  <compound>
COc1cn(Cc2cc(F)c(F)c(F)c2)c(Nc2cc(Oc3ccccn3)ccc2C)nc1=O [Compound I-0899]

>  <test.system>
human P2X7 receptor (Homo sapiens, UniProt Q99572, R270H/Y155H)

>  <pIC50>
> 8.00

$$$$
>  <compound>
COc1ccc(Nc2nc(=O)c(Cl)cn2Cc2cc(F)cc(F)c2)c(C)c1 [Compound I-0845]

>  <test.system>
human P2X7 receptor (Homo sapiens, UniProt Q99572, R270H/Y155H)

>  <pIC50>
7.00 to 8.00

$$$$
>  <compound>
Cc1c(F)cccc1Nc1nc(=O)c(F)cn1Cc1ccc(F)c(Cl)c1 [Compound I-1213]

>  <test.system>
human P2X7 receptor (Homo sapiens, UniProt Q99572, R270H/Y155H)

>  <pIC50>
> 8.00

$$$$
>  <compound>
COc1cn(Cc2ccc(F)c(Cl)c2)c(Nc2ccc3occc3c2C)nc1=O [Compound I-0799]

>  <test.system>
human P2X7 receptor (Homo sapiens, UniProt Q99572, R270H/Y155H)

>  <pIC50>
> 8.00

$$$$
>  <compound>
COc1ccc(Nc2cc(=O)c(OC)cn2Cc2ccccc2)c(C)c1 [Compound I-0959]

>  <test.system>
human P2X7 receptor (Homo sapiens, UniProt Q99572, R270H/Y155H)

>  <pIC50>
6.00 to 6.30

$$$$
>  <compound>
CN=c1nc(Nc2cc(C)ccc2C)n(Cc2cc(F)c(F)c(F)c2)cc1F [Compound I-1289]

>  <test.system>
human P2X7 receptor (Homo sapiens, UniProt Q99572, R270H/Y155H)

>  <pIC50>
6.30 to 7.00

$$$$
>  <compound>
COc1ccc(C)c(Nc2nc(=O)c(CO)nn2Cc2cc(F)c(F)c(F)c2)c1 [Compound I-1246]

>  <test.system>
human P2X7 receptor (Homo sapiens, UniProt Q99572, R270H/Y155H)

>  <pIC50>
> 8.00

$$$$
>  <compound>
COc1cn(Cc2ccc(F)c(F)c2)c(Nc2cc(C(C)(C)O)ccc2C)nc1=O [Compound I-0732]

>  <test.system>
human P2X7 receptor (Homo sapiens, UniProt Q99572, R270H/Y155H)

>  <pIC50>
7.00 to 8.00

$$$$
>  <compound>
O=c1nc(Nc2cccc3[nH]ccc23)n(Cc2ccc(F)c(F)c2)cc1F [Compound I-1025]

>  <test.system>
human P2X7 receptor (Homo sapiens, UniProt Q99572, R270H/Y155H)

>  <pIC50>
> 8.00

$$$$
>  <compound>
COc1ccc(C)c(Nc2nc(=O)c(OC)cn2Cc2cc(F)c(F)c(F)c2)c1 [Compound I-0625]

>  <test.system>
human P2X7 receptor (Homo sapiens, UniProt Q99572, R270H/Y155H)

>  <pIC50>
> 8.00

$$$$
>  <compound>
COc1cc(Cl)c(Nc2nc(=O)c(F)cn2Cc2cc(F)c(F)c(F)c2)cc1F [Compound I-1239]

>  <test.system>
human P2X7 receptor (Homo sapiens, UniProt Q99572, R270H/Y155H)

>  <pIC50>
> 8.00

$$$$
>  <compound>
COc1cc(Cl)c(Nc2nc(=O)c(C)cn2Cc2cc(F)c(F)c(F)c2)cc1OC [Compound I-1139]

>  <test.system>
human P2X7 receptor (Homo sapiens, UniProt Q99572, R270H/Y155H)

>  <pIC50>
7.00 to 8.00

$$$$
>  <compound>
CCOc1cn(Cc2ccccc2)c(Nc2cc(C)cc(OC)c2C)nc1=O [Compound I-0717]

>  <test.system>
human P2X7 receptor (Homo sapiens, UniProt Q99572, R270H/Y155H)

>  <pIC50>
> 8.00

$$$$
>  <compound>
Cc1cn(Cc2cc(F)c(F)c(F)c2)c(Nc2ccc3[nH]ccc3c2C)nc1=O [Compound I-1165]

>  <test.system>
human P2X7 receptor (Homo sapiens, UniProt Q99572, R270H/Y155H)

>  <pIC50>
> 8.00

$$$$
>  <compound>
COc1cc(C)c(Nc2nc(=O)ccn2Cc2ccc(F)c(Cl)c2)cc1OC [Compound I-1159]

>  <test.system>
human P2X7 receptor (Homo sapiens, UniProt Q99572, R270H/Y155H)

>  <pIC50>
> 8.00

$$$$
